B1: Zinc finger homeobox protein 3, residues 2147 to 2202; numbered along this chain, Q15911 (parent)
chain: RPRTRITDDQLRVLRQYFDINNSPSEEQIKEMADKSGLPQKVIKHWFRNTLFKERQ

variants of: B1; test: abundance fitness (aPCA) (normalised: wild type 0, dead -1); higher = more abundant; growth selection in yeast, the domain comes from the species named; settings: Homo sapiens
In this section we review reported abundance fitness values for a set of variants.

mutation_descriptor	abundance fitness
Q28G	-0.209
I20V	-0.074
Q16N	-0.174
R55M	-0.101
